All values here come from the Human Domainome abundance scans (Beltran et al. 2025).

B1: FERM and PDZ domain-containing protein 4, residues 75 to 154; numbered along this chain, Q14CM0 (parent)
chain: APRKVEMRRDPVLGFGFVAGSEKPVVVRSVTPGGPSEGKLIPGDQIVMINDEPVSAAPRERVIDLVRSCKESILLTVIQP

Variants of: B1
Assay: abundance fitness (aPCA) (normalised: wild type 0, dead -1); higher = more abundant; growth selection in yeast, the domain comes from the species named
Settings: Homo sapiens
Entry flag: true if abundance fitness reaches -0.05; false if it does not.

Example entries begin here.
CHANGES: L13V
CLASS_NAME: true
--
CHANGES: V12H
CLASS_NAME: true
--
CHANGES: R8G
CLASS_NAME: false
--
CHANGES: V26P
CLASS_NAME: false
--
CHANGES: P24G
CLASS_NAME: false
--
CHANGES: E71T
CLASS_NAME: false
--
CHANGES: V62K
CLASS_NAME: false
--
CHANGES: M48F
CLASS_NAME: true

Please check the record `G16Y` and state if its abundance fitness is at or above -0.05.
false

// inclusive: abundance fitness at least -0.05? input: `L74D`
true

Determine whether this variant has abundance fitness no lower than -0.05: `G43N`
false

Threshold query (abundance fitness >= -0.05) on `A57I`
false

Kindly determine if abundance fitness recorded for `P35C` is above or exactly -0.05.
false

Confirm if abundance fitness reported for the variant `G34R` is -0.05 or above.
false

Form field: abundance fitness at least -0.05? Entry: `L74Q`
true

Hi team, for `E71P` , is the recorded abundance fitness at or above -0.05?
false

Hi, just wondering whether `V47M` shows abundance fitness of -0.05 or higher.
true

Does the variant `R67E` have recorded abundance fitness that is -0.05 or more?
true
